Biological target: T1, full length human KLRG1 (cell-expressed) (human, UniProt Q96E93 1-195)
T1 construct: whole, on cells; also called CHO-human-KLRG1
T1 sequence (looked up): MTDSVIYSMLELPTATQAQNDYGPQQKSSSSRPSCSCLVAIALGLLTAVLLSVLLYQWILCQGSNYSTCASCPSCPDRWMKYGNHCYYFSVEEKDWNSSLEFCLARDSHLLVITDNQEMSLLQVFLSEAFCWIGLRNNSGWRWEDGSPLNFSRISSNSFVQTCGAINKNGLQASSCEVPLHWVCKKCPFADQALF
Test: FACS on CHO cells expressing full length human KLRG1, anti-mouse detection
In this section we review reported EC50 values for a set of binders.
Please respond with the number in nM and leave the unit unwritten.

Example results:
Binder	Uom	EC50
ABC_G1D02 (antibody, V domains shown, Mouse hybridoma monoclonal antibody) VH: QVQLQQSGAELVRPGTSVKVSCKASGYAFTNYFIEWIKQRPGQGLEWIGVINPGSGGTNYNEKFKGKATLTADKSSSTAYMQLSSLTSEDSAVYFCTRPGHFDYWGQGTTLTVSS VL: EIVLTQSPTTMAASPGEKITITCSASSSISSNYLHWYQQKPGFSPKLLIYKTSNLASGVPPRFSGSGSGTSYSLTIGTMEAEDVATYYCQQGNSIPRTFGGGTKLEIK	nM	9.11
ABC_G1D03 (antibody, V domains shown, Mouse hybridoma monoclonal antibody) VH: EVQLQQSGPELVKPGASVKMSCKTSGYTFTDHNMHWLKQSHGKGLEWFGFINPNTGVTRYNQKFNGKATLTINKSSSTAYLDLRSLTSEDSAVYYCTRDYYGSAWFAYWGQGTLVTVSA VL: DIVMSQSPASQTVSVGEKVTMSCKSSQTLLYSSDQKNYLAWYQQKPGQSPKLLIYWASTRESGVPDRFTGSGSGTDFTLTISSVKAEDLAVYYCQQYYNYPTFGGGTKLEIK	nM	6.3

Now take the following binder into account.
Prompt line: Please give the measured EC50 for this binder: ABC_G1D05 (antibody, V domains shown, Mouse hybridoma monoclonal antibody) VH: QVQLKQSGPGLVQPSQSLSITCTVSGFSLTTHGVHWVRQSPGKGLEWLGVIWSGGSTDYNAAFISRLSIRKDNSKSQVFFKMNSLQTNDTAIYYCARLRLPAMDYWGQGTSVTVSS VL: QIVLTQSPTIMSASLGERVTMTCTASSSVSSTYLHWYQQKPGSSPKLWIYSTSNLASGVPARFSGSGSGTSYSLTISSMEAEDAATYYCHQYHRSPLSFGAGTKLELK
Response line: 5.15
